Test: soluble on expression in E. coli; label from the status in PepcDB or PDB records
readout label: soluble on expression in E. coli

MGSDKIHHHHHHMEKMLYTAASGAVRILEAQSIRANNLANAETAGFKADLERVNAVPLVAQGNSLNTRVMAQTESSGFSQQSGVINPTGRSLDLAIRDRGLFSVAVDGAEAYTRSGAIETNAEGQLTIDGRPVLGIDGPIALPEYKDVFVGEDGTVSVLPAEGGIIEEVGRLKLVNPDFALMQKGQDGLLYRRDGQAVPQDEGVLVDSGFLESSNVQAVSELIASMDLSRQFEIQVKLMKSAEKLAEAGNRLLGNV	not soluble
MGHHHHHHSHMALLVRVLRNQTSISQWVPVCSRLIPVSPTQGQGDRALSRTSQWPQMSQSQACGGSEQIPGIDIQLNRKYHTTRKLSTTKDSPQPVEEKVGAFTKIIEAMGFTGPLKYSKWKIKIAALRMYTSCVEKTDFEEFLLRCQMPDTFNSWFLITLLHVWMCLVRMKQEGRSGKYMCRIIVHFMWEDVQQRGRVMGVNPYILKKNMILMTNHFYAAILGYDEGILSDDHGLAAALWRTFFNRKCEDPRHLELLVEYVRKQIQYLDSMNGEDLLLTGEVSWRPLVEKNPQSILKPHSPTYNDEGL	not soluble
MSLKINNLVDLHCHILPAIDDGSPSLEASLELARQAVADGIRYILATPHHMDRHYLNHAGDVVAAVEAFQAELDVNDIPLTIFPGQEVHLNGQLMEKVDDLLSIDTGRHYLLLELPHEMVPSYLDEMIFQLSCEGITPVIAHPERNAQIIAEPQRLYKLAEDGVLAQVTATSLVGTFGEQVQRTAKEFVKCGLVQVVASDAHTLKNRGFAMTKAYQVLNEMDSKYPERFATNARDLLNGEQIEMGQIEIPRKQRKHWLFEGHHHHHH	soluble
FHLGKCPNPPVQENFDVNKYPGRWYEIEKIPTTFENGRCIQANYSLMENGKIKVLNQELRADGTVNQIEGEATPVNLTEPAKLEVKFSWFMPSAPYHILATDYENYALVYSCTSISQSFHVDFAWILARNVALPPETVDSLKNILTSNNIDVKKMTVTDQVNCPKLSAHHHHHH	soluble
MQKFILSAFVVALVAADCALKCPDGYFSFKRAPSAKNSMTGLWCVKAILSDTLISPNQAKQVCEKDGSILTSFENLDERTKLATVLRDFLSAKKLDRGGMIVDGHRLKNCETDDRTVLNAEPCRNSSTGFTTDEKHTDNTFMWKSWADTEPGQSIFEKQIESCLQLAISQFKSRTELINDVFCNYVKHPQNEGAYDLWNYGAVCGRLPEWN	not soluble
DSVIVVDNVPQVGPDRLEKLKNVIHKIFSKFGKITNDFYPEEDGKTKGYIFLEYASPAHAVDAVKNADGYKLDKQHTFRVN	soluble
GPGSMMSSATLSDVETLENIPRGAPIGGSGIVSGTASEGSSRGAERSTVANVSEDGERGRREEEEDRKPLIMDQSVIMDEEPYISPAKAKKISWKCGLCGYYVLAMDHNGNPLELTNSPSGEPLPMSCPRCMLLHHDWEPAVPFDDFNNHANIRSKQSNSYVISDQKSGKQAGFVPARTPAERDLKKTSADITRILQEVEDRWRNYAPRESPTSREQGPKGRLMAYYCDKCNRELLRMDQYGELVPMVSDKEGKPLPIVCPGCKEEHSEWVVRPFTVTR	soluble
MTFTASSSSCAITESPVVVALDYHERDKALAFVDKIDPRDCRLKVGKEMFTLFGPQLVRDLQQRGFDVFLDLKFHDIPNTTARAVAAAADLGVWMVNVHASGGARMMAAARDALAPFSKDAPLLIAVTVLTSMETSDLHDLGVTLSPAEHAERLARLTQQCGLDGVVCSAQEAVRFKQAFGAAFKLVTPGIRPAGSEAGDQRRIMTPEQALSAGVDYMVIGRPVTQSVDPAQTLKDINASLKREA	not soluble
MGSDKIHHHHHHMKTLVICSGGLDSVSLAHKVAAEHDLIGLISFDYGQRHRKELDFAARAATRLGVPHDLIDMRQIGAHLSGSALTDDVDVPDGHYAEDTMKITVVPNRNAIMLAIAFGIAAAKQADAVATAVHGGDHFIYPDCRPGFTQAFEAMQAQALDGYASVRLYTPFVHEPKSAIVTEGERHNTPFADTWSCYKGGEVHCGRCGTCVERREAFHLAGVADPTPYADPEFWRAAVEGR	not soluble
MAHHHHHHMEAFAITPLAEDDTTFVKDAQQFLAVIADMQREAEQRRCLLDDLRQKEAAAEMELEKCLAVREAVVARMAHTKAEGLELQSEYKALTTQQRAVEAEVLELRRQKSHWKKVLQEFQGSSSSSHLLGSGNTDGATVKSASSLDRALHAWSQLPHGSMFLKELKKTLTEFVAELAVNAGSNTNDNSNTTHNGTSTEYTTAFLDPSSVFPHLPPLSKVEEAIILLIPFSA	not soluble
MGSDKIHHHHHHMFDVAARSGSFKQASQELGVTQSAVTRQIQTLEEQLEVRLFQRDNRVHSLTPVGLELAPQIEQIFEQLERTIERTRNLSDNTTTQLTVAISSERLRFWLAAKLADFHSLYPHIQLSFSRCNEYFINESAAEMASAIQHQSWDLAIGYGKVTDKHIQSIVLQKNQMLPVSAIKTNNSPFQLPWLINPENPDHQAMLKTYSQQLKSTRIIHCNDVQMSLDLSSAEQAVALIDSSLITPGLSNLKVYNDSAQPCQYPLSIYYRKRQRQPVALVAFIKWLQMIIS	not soluble
GHHDKRFKAFIAHDGIFNMEMQYLETEEKWFANWDMGGAYWEKQNPTAQRTFANSPHLFVEKWDTPILCIHGEKDYRILANQAMAAFDAAVMRGVPAELLIYPDENHWVLKPQNGVLWQRTFFEWLDQWLKPN	not soluble
KKVIIIINPTSGGEAALDYKESLESKAKEYFDHVETKITQRAKDATHFAQNASEEKYDAVIVFGGDGTVNEVISGISEKNHIPKLGIIPGRTGNLITKLLEIN	not soluble

These entries and their values trace back to the DeepSol protein solubility set.
